Assay: PAMPA-BBB permeability
Details: PAMPA, pH 7.4
Where a SMILES comes first, the peptide text is derived from it. The star is where a group is joined. Isobutyryl = CC(C)C(=O)*; OAll = C=CCO*
Lab note - cut at 9 ×10⁻⁶ cm/s for Papp at 5 h, 200 μM: yes if strictly below, no if not.

{"COMPOUND": "CCn1cc(C(=O)O)c(=O)c2cc(F)c(N3CCNCC3)cc21 [norfloxacin, reference compound]", "GROUP_LABEL": "yes"}
{"COMPOUND": "C(=C\\n1nncc1COc1ccc2ccccc2c1-c1c(OCc2cnnn2/C=C/Cc2ccccc2)ccc2ccccc12)/Cc1ccccc1 [Compound 33]", "GROUP_LABEL": "yes"}
{"COMPOUND": "C=CCOC(=O)[C@H](C)NC(=O)[C@@H]1CCCN1C(=O)CNC(=O)C(C)C [Compound 15, Isobut-Gly-Pro-Ala-O-allyl] (Isobutyryl-Gly-Pro-Ala-OAll)", "GROUP_LABEL": "yes"}
{"COMPOUND": "CC(C)=CCC/C(C)=C/COC(=O)[C@H](C)NC(=O)[C@@H]1CCCN1C(=O)CNC(=O)C(C)C [Compound 18, Isobut-Gly-Pro-Ala-O-Geranyl]", "GROUP_LABEL": "yes"}
{"COMPOUND": "C[C@H](NC(=O)[C@@H]1CCCN1C(=O)CNC(=O)OCc1ccccc1)C(=O)OC/C=C/c1ccccc1 [Compound 25, Cbz-Gly-Pro-Ala-O-cinnamyl]", "GROUP_LABEL": "no"}
{"COMPOUND": "CC(C)C(=O)NCC(=O)N1CCC[C@H]1C(=O)N[C@@H](C)C(=O)OC/C=C/c1ccccc1 [Compound 17, Isobut-Gly-Pro-Ala-O-Cinnamyl]", "GROUP_LABEL": "yes"}
{"COMPOUND": "Cn1c(=O)c2c(ncn2C)n(C)c1=O [caffeine, reference compound]", "GROUP_LABEL": "no"}
